# key: entry, value: IC50
target: PI3Kα (Homo sapiens, UniProt P42336); assay: PI3K HTRF assay, PI3K-alpha; assay type: biochemical; conditions: read-out: pIC50 PI3Kα (converted); also: 250 µM ATP
Sequence (P42336 whole entry, species assumed): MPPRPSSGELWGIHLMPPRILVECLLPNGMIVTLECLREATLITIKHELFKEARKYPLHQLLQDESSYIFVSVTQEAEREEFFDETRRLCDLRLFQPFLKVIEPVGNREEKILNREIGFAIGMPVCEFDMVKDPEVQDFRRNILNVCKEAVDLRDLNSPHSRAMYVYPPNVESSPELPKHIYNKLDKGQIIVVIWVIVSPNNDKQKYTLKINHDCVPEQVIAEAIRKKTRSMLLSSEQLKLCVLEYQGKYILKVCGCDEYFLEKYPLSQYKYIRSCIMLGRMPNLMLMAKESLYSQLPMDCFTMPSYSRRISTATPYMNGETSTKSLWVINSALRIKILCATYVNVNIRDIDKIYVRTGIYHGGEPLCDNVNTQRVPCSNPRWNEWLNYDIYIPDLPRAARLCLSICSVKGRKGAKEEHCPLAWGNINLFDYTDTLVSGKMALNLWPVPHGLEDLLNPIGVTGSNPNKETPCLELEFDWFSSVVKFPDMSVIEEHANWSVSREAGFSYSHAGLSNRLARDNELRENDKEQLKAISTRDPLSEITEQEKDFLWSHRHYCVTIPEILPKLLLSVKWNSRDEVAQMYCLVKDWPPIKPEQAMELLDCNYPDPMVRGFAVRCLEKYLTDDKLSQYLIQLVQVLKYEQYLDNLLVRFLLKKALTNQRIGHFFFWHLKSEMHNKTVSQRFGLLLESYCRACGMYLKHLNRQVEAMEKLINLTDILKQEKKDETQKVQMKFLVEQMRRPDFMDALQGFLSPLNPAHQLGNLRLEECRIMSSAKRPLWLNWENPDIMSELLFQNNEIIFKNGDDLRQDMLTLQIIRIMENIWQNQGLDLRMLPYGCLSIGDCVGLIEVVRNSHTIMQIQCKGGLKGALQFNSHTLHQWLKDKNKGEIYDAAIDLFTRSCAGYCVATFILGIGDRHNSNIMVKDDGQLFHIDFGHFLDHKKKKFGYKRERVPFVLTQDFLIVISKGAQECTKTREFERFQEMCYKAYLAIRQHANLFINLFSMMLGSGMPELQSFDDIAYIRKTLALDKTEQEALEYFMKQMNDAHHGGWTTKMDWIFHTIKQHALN
Sequence (P27986 whole entry partner, species assumed): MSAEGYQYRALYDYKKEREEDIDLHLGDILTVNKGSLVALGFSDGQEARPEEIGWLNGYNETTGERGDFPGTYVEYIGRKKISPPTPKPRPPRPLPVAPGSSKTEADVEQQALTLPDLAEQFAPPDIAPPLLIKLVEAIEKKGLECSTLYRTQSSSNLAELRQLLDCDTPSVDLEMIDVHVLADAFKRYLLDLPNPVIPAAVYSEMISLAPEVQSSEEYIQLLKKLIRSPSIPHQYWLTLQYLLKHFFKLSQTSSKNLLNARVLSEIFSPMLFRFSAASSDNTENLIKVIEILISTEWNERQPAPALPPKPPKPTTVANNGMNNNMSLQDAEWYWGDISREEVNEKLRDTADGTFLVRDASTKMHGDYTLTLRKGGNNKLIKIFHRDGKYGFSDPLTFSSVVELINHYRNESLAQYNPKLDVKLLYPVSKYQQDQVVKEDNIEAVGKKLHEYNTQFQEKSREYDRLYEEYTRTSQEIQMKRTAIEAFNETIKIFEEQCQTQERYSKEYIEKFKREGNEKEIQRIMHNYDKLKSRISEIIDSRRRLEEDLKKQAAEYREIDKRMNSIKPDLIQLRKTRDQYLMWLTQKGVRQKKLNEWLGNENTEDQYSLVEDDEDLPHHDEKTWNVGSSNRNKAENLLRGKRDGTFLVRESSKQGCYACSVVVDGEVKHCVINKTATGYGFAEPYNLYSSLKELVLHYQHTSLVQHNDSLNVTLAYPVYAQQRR
metric: IC50 (µM)

| structure_string | quantitative_readout |
| --- | --- |
| COc1ncc(-c2cc(-c3ncc(CN4CCN(C(C)C)CC4)o3)c3cn[nH]c3c2)cc1C(=O)Oc1ccc(C)cc1C | 7.94 |
| COc1ccc(OC(=O)c2cc(-c3cc(-c4ncc(CN5CCN(C(C)C)CC5)o4)c4cn[nH]c4c3)cnc2OC)cc1 | 15.8 |
| COc1ncc(-c2cc(-c3ncc(CN4CCN(C(C)C)CC4)o3)c3cn[nH]c3c2)cc1C(=O)Oc1ccc(F)cc1 | 3.16 |
| COc1ncc(-c2cc(-c3ncc(CN4CCN(C(C)C)CC4)o3)c3cn[nH]c3c2)cc1C(=O)Oc1ccc([N+](=O)[O-])cc1 | 0.00631 |
| COc1ncc(-c2cc(-c3ncc(CN4CCN(C(C)C)CC4)o3)c3cn[nH]c3c2)cc1C(=O)Oc1ccccc1C(F)(F)F | 1 |
| COC(=O)c1cc(-c2cc(-c3ncc(CN4CCN(C(C)C)CC4)o3)c3cn[nH]c3c2)cnc1OC.O=CO | 10 |
| COc1ncc(-c2cc(-c3ncc(CN4CCN(C(C)C)CC4)o3)c3cn[nH]c3c2)cc1C(=O)Oc1ccc(C(F)(F)F)cc1 | 2 |
